Target: T1, Human ST2 (human, UniProt Q01638 19-328, limits assumed)
T1 construct: also called human ST2 protein; Interleukin 1 receptor-like 1
T1 sequence (looked up): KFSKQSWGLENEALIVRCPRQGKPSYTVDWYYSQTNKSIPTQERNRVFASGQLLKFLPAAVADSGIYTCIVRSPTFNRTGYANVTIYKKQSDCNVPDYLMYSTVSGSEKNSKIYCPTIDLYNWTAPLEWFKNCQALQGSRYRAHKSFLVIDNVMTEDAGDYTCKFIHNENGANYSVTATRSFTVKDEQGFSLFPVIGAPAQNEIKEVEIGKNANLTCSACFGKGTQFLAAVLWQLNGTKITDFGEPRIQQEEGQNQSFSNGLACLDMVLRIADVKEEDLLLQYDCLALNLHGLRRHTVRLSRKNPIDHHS
Assay: SPR (Carterra), antibody immobilized, ST2 analyte
ASSAY ENDPOINT: koff (s⁻¹)
Give the value, in units of s⁻¹, as a plain number.

BINDER	ASSAY ENDPOINT	TEST VALUE
Human ST2 IgG1 Antibody 44 (antibody, V domains shown, IgG1; also called ST2 Antibody 44) VH: EVQLLESGGGLVKPGGSLRLSCAASGFTFSSYWMSWVRQAPGKGLEWVSAISGTAINTYYADSVKGRFTISRDDSKNTLYLQMNSLKTEDTAVYYCARVRRDSSGGGAFDIWGQGTMVTVSS VL: DIQMTQSPSSLSASVGDRVTITCRASQGISNNLNWYQQKPGKAPKLLIYAASSLQTGVPSRFSGSGSGTDFTLTISSLQPEDFATYYCQQSYSTPPTFGQGTKVEIKR	koff	0.024

Give the measured koff for Human ST2 IgG1 Antibody 60 (antibody, V domains shown, IgG1; also called ST2 Antibody 60) VH: QVQLVQSGAEVKKPGASVKVSCKASGYTFTDHYLHWVRQAPGQGLEWMGIINPSGGYTSHAQKFQGRVTMTRDTSTSTVYMELSSLRSEDTAVYYCARDRFRELLGSRYYGMDVWGQGTTVTVSS VL: DIQMTQSPSSLSASVGDRVTITCRASQDLSNHLAWYQQKPGKAPKLLIYAASTLQSGVPSRFSGSGSGTDFTLTISSLQPEDFATYYCQQYHDWPLTFGQGTKVEIKR
0.12

Item Human ST2 IgG1 Antibody 38 (antibody, V domains shown, IgG1; also called ST2 Antibody 38) VH: QVQLVQSGAEVKKPGSSVKVSCKASGGTFSSYAISWVRQAPGQGLEWMGTIIPMFGIADYAQKFQGRVTITADESTSTAYMELSSLRSEDTAVYYCARSSRSSSWYNWYFDLWGRGTLVTVSS VL: EIVMTQSPATLSVSPGERATLSCRASQSISSSYLAWYQQKPGQAPRLLIYGASTRATGIPARFSGSGSGTEFTLTISSLQSEDFAVYYCQQYYTTPWTFGQGTKVEIKR : provide koff
0.0053

Report koff, nothing else, for this binder: Human ST2 IgG1 Antibody 99 (antibody, V domains shown, IgG1; also called ST2 Antibody 99) VH: EVQLLESGGGLVQPGGSLRLSCAASGFTFSDYYMNWVRQAPGKGLEWVSTISGFGESTFYADSVKGRFTISRDNSKNTLYLQMNSLRAEDTAVYYCARLGAARAFDIWGQGTTVTVSS VL: DIQMTQSPSSLSASVGDRVTITCRASQSIGSWMAWYQQKPGKAPKLLIYAASTLQSGVPSRFSGSGSGTDFTLTISSLQPEDFATYYCQQSYTTPITFGPGTKVDIKR
0.089

Please report the measured koff for Human ST2 IgG1 Antibody 100 (antibody, V domains shown, IgG1; also called ST2 Antibody 100) VH: EVQLLESGGGLVQPGGSLRLSCAASGFTFSNYAMAWVRQAPGKGLEWVSWISGSGSYIYYADSVKGRFTISRDNSKNTLYLQMNSLRAEDTAVYYCARRGSSWSNFDYWGQGTLVTVSS VL: DIQMTQSPSSLSASVGDRVTITCRASQTISTYLNWYQQKPGKAPKLLIYDASNLETGVPSRFSGSGSGTDFTLTISSLQPEDFATYYCQQSYSTPITFGQGTKVEIKR
0.074

The measurements presented in this section are drawn from patent US20210403579A1.
